Data provenance is patent US20130245355A1.

target: PDK1 (Homo sapiens, UniProt O15530); construct: endogenous in cells; host or cells: PC3 cells; assay: Cellular testing of PDK1 kinase inhibitors in PC3 cells (Luminex, phospho-T308-PKB); type: cell-based; conditions: 30 min, serum-free
Entries annotated with measured IC50

compound="Cn1cc(-c2cnc3[nH]cc(-c4cc(C(C)(O)c5ccccc5Cl)on4)c3c2)cn1 (stereo not shown)" tested_system="PDK1 (Homo sapiens, UniProt O15530)" experimental_result="0.5 to 1000 nM"
compound="Cn1cc(-c2cnc3[nH]cc(-c4n[nH]c(C(O)c5ccccc5Cl)n4)c3c2)cn1 (stereo not shown)" tested_system="PDK1 (Homo sapiens, UniProt O15530)" experimental_result="1000 to 10000 nM"
compound="Cn1cc(-c2cnc3[nH]cc(-c4nnc(C(O)c5ccccc5Cl)o4)c3c2)cn1 (racemic)" tested_system="PDK1 (Homo sapiens, UniProt O15530)" experimental_result="0.5 to 1000 nM"

So what does the record say about IC50 for Cn1cc(-c2cnc3[nH]cc(-c4n[nH]c(C(C)(O)c5ccccc5F)n4)c3c2)cn1 (stereo not shown) ?
1000 to 10000 nM

----------
molecular target: PDK1 (Homo sapiens, UniProt O15530); construct: His6 (N); assay: Test for the inhibition of PDK1 (flashplate, 33P-ATP); conditions: His6-PDK1 (1-50) 3.4 nM, 4 μM ATP, 30° C., 60 min; read-out: IC50 [PDK1] biochemical
Entries annotated with measured IC50

compound="CN[C@@H](c1ccccc1)c1nnc(-c2c[nH]c3ncc(-c4cnn(C)c4)cc23)o1 [A116]" reported_property=IC50 experimental_result="0.5 to 1000 nM"
compound="Cn1cc(-c2cnc3[nH]cc(-c4nnc(C(N)c5cc(F)cc(F)c5)o4)c3c2)cn1 (centres unmarked) [A117]" reported_property=IC50 experimental_result="1000 to 10000 nM"
compound="Cn1cc(-c2cnc3[nH]cc(-c4nc(C(C)(O)c5cccc(F)c5)no4)c3c2)cn1 (centres unmarked) [A72]" reported_property=IC50 experimental_result="0.5 to 1000 nM"
compound="Cn1cc(-c2cnc3[nH]cc(-c4cc([C@](C)(O)c5cccc(F)c5)on4)c3c2)cn1 (single isomer, unassigned) [A63]" reported_property=IC50 experimental_result="0.5 to 1000 nM"
compound="CCC(N)(c1ccccc1)c1nnc(-c2c[nH]c3ncc(-c4cnn(C)c4)cc23)o1 (centres unmarked) [A114]" reported_property=IC50 experimental_result="1000 to 10000 nM"

So what does the record say about IC50 for Cn1cc(-c2cnc3[nH]cc(-c4nnc(C(N)c5cccnc5)o4)c3c2)cn1 (centres unmarked) [A115] ?
1000 to 10000 nM

Same again, this time with Cn1cc(-c2cnc3[nH]cc(-c4cc(C(O)c5ccccc5)[nH]n4)c3c2)cn1 (centres unmarked) [A74]
0.5 to 1000 nM

Same again, this time with Cn1cc(-c2cnc3[nH]cc(-c4nc(C(C)(O)c5cccc(F)c5F)no4)c3c2)cn1 (centres unmarked) [A78]
0.5 to 1000 nM

----------
Target: PDK1 (Homo sapiens)
Construct: endogenous in cells; host or cells: PC3 cells
Sequence (O15530 1-556): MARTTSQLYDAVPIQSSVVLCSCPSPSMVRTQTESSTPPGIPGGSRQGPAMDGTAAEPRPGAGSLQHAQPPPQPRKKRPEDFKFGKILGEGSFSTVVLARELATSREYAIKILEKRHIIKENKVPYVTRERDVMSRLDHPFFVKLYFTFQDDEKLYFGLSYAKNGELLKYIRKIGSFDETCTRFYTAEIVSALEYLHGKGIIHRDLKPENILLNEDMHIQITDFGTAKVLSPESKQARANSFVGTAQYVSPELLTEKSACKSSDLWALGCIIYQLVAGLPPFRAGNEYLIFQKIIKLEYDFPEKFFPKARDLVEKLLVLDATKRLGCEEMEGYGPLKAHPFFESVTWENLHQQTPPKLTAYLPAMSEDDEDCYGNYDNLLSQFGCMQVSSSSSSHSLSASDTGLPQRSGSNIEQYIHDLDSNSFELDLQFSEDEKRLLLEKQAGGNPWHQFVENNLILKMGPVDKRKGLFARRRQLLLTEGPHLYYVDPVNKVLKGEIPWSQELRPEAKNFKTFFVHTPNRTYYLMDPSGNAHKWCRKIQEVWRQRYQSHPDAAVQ
Assay: Cellular testing of PDK1 kinase inhibitors in PC3 cells (Luminex, phospho-T308-PKB)
Format: cell-based
Conditions: 30 min, serum-free
pIC50: −log10 of the molar value.
reported.property: pIC50

Answered cases to consult:
compound="Cn1cc(-c2cnc3[nH]cc(-c4nnc([C@@H](O)c5ccccc5Cl)o4)c3c2)cn1 (single isomer, unassigned) [A130]" tested_system="PDK1 (Homo sapiens)" experimental_result="6.00 to 9.30"
compound="Cn1cc(-c2cnc3[nH]cc(-c4cc(C(C)(O)c5ccccc5)n(CCO)n4)c3c2)cn1 (centres unmarked) [A68]" tested_system="PDK1 (Homo sapiens)" experimental_result="5.00 to 6.00"
compound="Cn1cc(-c2cnc3[nH]cc(-c4nc(C(C)(O)c5ccccc5Cl)no4)c3c2)cn1 (centres unmarked) [A79]" tested_system="PDK1 (Homo sapiens)" experimental_result="6.00 to 9.30"
compound="CCC(O)(c1cccc(F)c1)c1cc(-c2c[nH]c3ncc(-c4cnn(C)c4)cc23)no1 (centres unmarked) [A11]" tested_system="PDK1 (Homo sapiens)" experimental_result="6.00 to 9.30"

Checklist item: pIC50 tested on PDK1 (Homo sapiens), entry Cn1cc(-c2cnc3[nH]cc(-c4nnc(C(O)c5ccc(F)cc5)o4)c3c2)cn1 (centres unmarked) [A57] , value?
5.00 to 6.00

Same again, this time with Cn1cc(-c2cnc3[nH]cc(-c4cc([C@](C)(O)c5cccc(F)c5)on4)c3c2)cn1 (single isomer, unassigned) [A62]
5.00 to 6.00

Same again, this time with Cn1cc(-c2cnc3[nH]cc(-c4nnc([C@@H](N)c5ccccc5Cl)o4)c3c2)cn1 [A113]
5.00 to 6.00
